// data source = PubChem BioAssay AID1159580

# assay: chemical genetic growth profiling, strain panel (AID 1159580);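 also: tested at 20 µM; growth read once vehicle control cultures reached saturation at 30 °C; 1 = growth at the plate median or of vehicle wells; lower values mean less growth of the strain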
# condition: S. cerevisiae deletion strains, growth OD, locus YLL041C, strain sdh2, active compounds read low
Among all 5,500 compounds or so, about 2,000 (36%) were called active. Roughly 18% stayed inconclusive and do not appear here. Some of the results follow.
Reported normalized growth by item:

- molecule: "CCCCC(=O)N(Cc1ccc(-c2ccccc2-c2nn[nH]n2)cc1)[C@H](C(=O)O)C(C)C"
  normalized growth: 1
- molecule: "Fc1ccc(C(c2ccc(F)cc2)N2CCN(C/C=C/c3ccccc3)CC2)cc1"
  normalized growth: 0.41
- molecule: "Nc1ncnc2c1ncn2[C@@H]1O[C@H](CO)[C@@H](O)[C@@H]1O"
  normalized growth: 1.01
- molecule: "CC(=O)Oc1ccc2c(c1)CCC1C2CCC2(C)C1CC(OC(C)=O)C2OC(C)=O (centres undefined)"
  normalized growth: 0.999
- molecule: "Cc1cccc(N(C)C(=S)Oc2ccc3ccccc3c2)c1"
  normalized growth: 0.987
- molecule: "Cc1cc(C)nc(NS(=O)(=O)c2ccc(N)cc2)n1"
  normalized growth: 0.975
- molecule: "CC(=O)N[C@@H](CC(=O)O)C(=O)O"
  normalized growth: 1.01
- molecule: "O=C(O)c1cc2cc(Cl)ccc2[nH]1"
  normalized growth: 0.988
- molecule: "C=C1CC2C(CCC3(C)C(=O)CCC23)C2(C)C=CC(=O)C=C12 (centres undefined)"
  normalized growth: 0.939
- molecule: "C[C@]12CCC3c4ccc(O)cc4CCC3C1CC[C@@H]2OC(=O)CCC1CCCC1 (some centres undefined)"
  normalized growth: 1
- molecule: "COC(=O)C[C@H]1C(C)(C)[C@@H](OC(C)=O)[C@@H]2CC3C4CC(=O)O[C@@H](c5ccoc5)[C@]4(C)CCC3[C@@]1(C)C2=O (some centres undefined)"
  normalized growth: 1
- molecule: "CC(C)=CCC1=C(O)c2ccccc2C(=O)C1=O"
  normalized growth: 0.815
- molecule: "COc1ccc2[nH]cc(CCNC(C)=O)c2c1"
  normalized growth: 0.977
- molecule: "CC(=O)OC1CCC2C3CCc4cc(O)ccc4C3CCC12C (centres undefined)"
  normalized growth: 1.02
- molecule: "CC(C)CCCC(C)[C@H]1CCC2C3CC[C@H]4CC(=O)CC[C@]4(C)C3CC[C@@]21C (some centres undefined)"
  normalized growth: 0.979
- molecule: "Cn1c([N+](=O)[O-])cnc1COC(N)=O"
  normalized growth: 0.993
- molecule: "Nc1ncnc2nc[nH]c12"
  normalized growth: 0.991
- molecule: "CC(=O)OC1CCC23C(=O)OC45CCC(C6=CC(=O)OC6)C4(C)CCC2C5CCC3(O)C1 (centres undefined)"
  normalized growth: 0.966
- molecule: "COc1cc2ccc(=O)oc2c(OC)c1OC"
  normalized growth: 0.979
- molecule: "CC(C)=CCC/C(C)=C/COc1ccc2ccc(=O)oc2c1"
  normalized growth: 0.983
- molecule: "COc1ccc2c(c1)[nH]c1c(C)nccc12"
  normalized growth: 0.993
- molecule: "FC(F)(F)COCC(F)(F)F"
  normalized growth: 1.02
- molecule: "Cc1ncc([N+](=O)[O-])n1CCO"
  normalized growth: 0.98
- molecule: "CC(C)=CCOc1c2occc2cc2ccc(=O)oc12"
  normalized growth: 0.919

====

# assay: chemical genetic growth profiling, strain panel (AID 1159580);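 also: tested at 20 µM; growth read once vehicle control cultures reached saturation at 30 °C; 1 = growth at the plate median or of vehicle wells; lower values mean less growth of the strain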
# condition: S. cerevisiae deletion strains, growth OD, locus YLR113W, strain HOG1, active compounds read low
Among all 5,500 compounds or so, about 2,000 (36%) were called active. Another 18% or so got no clear call; they are omitted. The list shows a part of the results.

- molecule: "COc1cc(O)c(C(=O)O)c(O)c1"
  normalized growth: 0.83
- molecule: "CC(C(=O)O)c1ccc(N2Cc3ccccc3C2=O)cc1 (centres undefined)"
  normalized growth: 0.984
- molecule: "N#C/C(=N/Nc1ccc(C(F)(F)F)cc1)C(=O)C1CC1"
  normalized growth: 0.835
- molecule: "CC(C)=CCC/C(C)=C/COc1ccc2ccc(=O)oc2c1"
  normalized growth: 0.944
- molecule: "COc1cc2ccc(=O)oc2cc1O"
  normalized growth: 1.04
- molecule: "CC(C)=CCc1c(O)cc2occ(-c3ccc4c(c3)OCO4)c(=O)c2c1O"
  normalized growth: 0.75
- molecule: "CC1CCc2c(sc3ncnc(Sc4ccccc4)c23)C1 (centres undefined)"
  normalized growth: 0.886
- molecule: "O=c1[nH]c2ccccc2n1C1CCN(CCCC(c2ccc(F)cc2)c2ccc(F)cc2)CC1"
  normalized growth: 0.967
- molecule: "Cc1nc(C(F)(F)F)ccc1-c1nnc(SC(=O)c2ccc(Cl)cc2)o1"
  normalized growth: 0.229

====

# assay: chemical genetic growth profiling, strain panel (AID 1159580);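 also: tested at 20 µM; growth read once vehicle control cultures reached saturation at 30 °C; 1 = growth at the plate median or of vehicle wells; lower values mean less growth of the strain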
# condition: S. cerevisiae deletion strains, growth OD, locus YDR137W, strain rgp1
Screen size: about 5,500 compounds; about 2,000 (36%) were called active. Roughly 18% stayed inconclusive and do not appear here. Rule as the data show it: active = normalized growth mostly below about 0.91 (no sharp cut-off); inconclusive = no clear call, values can overlap the other calls; inactive = mostly above about 0.92. This is one part of the list.
Labels: active, inactive

- compound: "CCCCC(=O)O[C@H]1CCC2C3CCc4cc(O)ccc4C3CC[C@@]21C (stereo not given in full)"
  category label: "inactive"
- compound: "OCCN1CCN(CCCN2c3ccccc3Sc3ccc(Cl)cc32)CC1"
  category label: "active"
- compound: "COc1cc2ccc(=O)oc2c2ccoc12"
  category label: "inactive"
- compound: "COC(=O)C[C@H]1C(C)(C)[C@@H](OC(C)=O)[C@@H]2CC3C4CC(=O)O[C@@H](c5ccoc5)[C@]4(C)CCC3[C@@]1(C)C2=O (stereo not given in full)"
  category label: "inactive"
- compound: "O=C1c2ccccc2C(=O)c2c1ccc(O)c2O"
  category label: "active"
- compound: "CC(=O)O[C@H]1CC2CCC3C(CC[C@@]4(C)C3C[C@H]([N+]3(C)CCCCC3)[C@@H]4OC(C)=O)[C@@]2(C)C[C@@H]1[N+]1(C)CCCCC1 (stereo not given in full)"
  category label: "inactive"
- compound: "O=C(/C=C/C(=O)Oc1ccccc1C(=O)O)Oc1ccccc1C(=O)O"
  category label: "inactive"
- compound: "CC(=O)OC1CCC23C(=O)OC45CCC(C6=CC(=O)OC6)C4(C)CCC2C5CCC3(O)C1 (stereo not given)"
  category label: "inactive"
- compound: "CSCCC(NC=O)C(=O)NC(CC(C)C)C(=O)NC(Cc1ccccc1)C(=O)O (stereo not given)"
  category label: "inactive"
- compound: "O=C(O)c1cccc(O)c1O"
  category label: "inactive"
- compound: "O=C1c2ccc(O)c(O)c2C(=O)c2c(O)ccc(O)c21"
  category label: "active"
- compound: "Cc1cc(C)nc(NS(=O)(=O)c2ccc(N)cc2)n1"
  category label: "inactive"
- compound: "COc1ccc2c(=O)c(CC(=O)O)coc2c1"
  category label: "inactive"
- compound: "O=C(O)c1cc2cc(Cl)ccc2[nH]1"
  category label: "inactive"
- compound: "CN1CCN(CCCN2c3ccccc3Sc3ccc(Cl)cc32)CC1"
  category label: "active"
- compound: "NCCS"
  category label: "inactive"
- compound: "C[C@]12CCC3C(CC[C@H]4CC(=O)CC[C@]34C)C1CCC2=O (stereo not given in full)"
  category label: "active"
- compound: "CC(=O)N[C@@H](CC(=O)O)C(=O)O"
  category label: "inactive"
- compound: "C[C@]12C=CC(=O)C=C1CCC1C2C(=O)C[C@@]2(C)C1CC[C@]2(O)C(=O)CO (stereo not given in full)"
  category label: "inactive"
- compound: "O=c1ccc2ccc(O)c(O)c2o1"
  category label: "inactive"
- compound: "CCOc1ccc(Cc2nccc3cc(OCC)c(OCC)cc23)cc1OCC"
  category label: "inactive"
- compound: "CC1=C2CCC3C(CC[C@]4(C)C(=O)CCC34)[C@@]2(C)CCC1=O (stereo not given in full)"
  category label: "active"
- compound: "CC(=O)OCC(=O)[C@@]1(O)CCC2C3CCC4=CC(=O)CC[C@]4(C)[C@@]3(F)[C@@H](O)C[C@@]21C (stereo not given in full)"
  category label: "inactive"
- compound: "N#Cc1ccc2c(c1)N(CCCN1CCC(O)CC1)c1ccccc1S2"
  category label: "inactive"
- compound: "CC(C(=O)O)c1ccc(N2Cc3ccccc3C2=O)cc1 (stereo not given)"
  category label: "inactive"
- compound: "C=C(C)c1cc2cc(C(C)=O)c(O)cc2o1"
  category label: "inactive"
- compound: "C[C@]12CCC3C(CC[C@H]4C[C@@H](O)CC[C@]34C)C1CCC2=O (stereo not given in full)"
  category label: "active"
- compound: "CC(=O)OC1CCC2C3CCc4cc(O)ccc4C3CCC12C (stereo not given)"
  category label: "active"
- compound: "COc1c2occc2cc2ccc(=O)oc12"
  category label: "inactive"
- compound: "CC1(C)C=Cc2c(cc3occ(-c4ccc5c(c4)OCO5)c(=O)c3c2O)O1"
  category label: "inactive"
